Taken from patent US20090191193A1.

Known melting point of a selection of compounds

Past entries and their recorded results:
- Compound: "COc1ccc(/C=C(\\C#N)S(=O)(=O)Cc2ccc(OC)cc2)cc1 [Example 141]"
  Quantity Measured: "melting point"
  Test Value: "163 to 167 °C"
- Compound: "CCOc1ccc(/C=C(\\C(N)=O)S(=O)(=O)Cc2ccc(F)cc2)cc1OC [Example 164]"
  Quantity Measured: "melting point"
  Test Value: "197 to 202 °C"
- Compound: "COc1ccc(CS(=O)(=O)/C(=C/c2c(OC)cccc2OC)C(N)=O)cc1 [Example 173]"
  Quantity Measured: "melting point"
  Test Value: "166 to 168 °C"
- Compound: "N#C/C(=C\\c1cc(F)cc(F)c1)S(=O)(=O)Cc1ccccc1 [Example 143]"
  Quantity Measured: "melting point"
  Test Value: "148 to 150 °C"

[ask] Dear colleague, please send me the reported melting point for COc1ccc(NS(=O)(=O)/C(C#N)=C/c2c(OC)cccc2OC)cc1 [Example 193] when you can.
[reply] 154 to 156 °C

[ask] Dear colleague, please send me the reported melting point for N#C/C(=C\c1ccc(Cl)cc1Cl)S(=O)(=O)Cc1ccc(F)cc1 [Example 85] when you can.
[reply] 153 to 163 °C

[ask] Dear colleague, please send me the reported melting point for COc1ccc(CS(=O)(=O)/C(C#N)=C/c2ccc(C#N)cc2F)cc1 [Example 17] when you can.
[reply] 112 to 114 °C

[ask] Dear colleague, please send me the reported melting point for N#C/C(=C\c1ccc(F)cc1F)S(=O)(=O)Nc1ccc(Br)cc1 [Example 226] when you can.
[reply] 165 to 166 °C

[ask] Dear colleague, please send me the reported melting point for COc1cc(OC)c(/C=C(\[N+](=O)[O-])S(=O)(=O)c2ccccc2)c(OC)c1 [Example 187] when you can.
[reply] 176 to 180 °C

[ask] Dear colleague, please send me the reported melting point for COc1ccc(CS(=O)(=O)/C(C#N)=C/c2cc(OC)cc(OC)c2)cc1 [Example 149] when you can.
[reply] 135 to 140 °C

* * *

Known melting point of a selection of compounds

Past entries and their recorded results:
- Smiles Repr: "Cc1ccc(NS(=O)(=O)/C(C#N)=C/c2ccc(O)cc2)c(C)c1"
  melting point: "152 to 154 °C"
- Smiles Repr: "Cc1cc(C)cc(/C=C(\\C#N)S(=O)(=O)Cc2ccc(Br)cc2)c1"
  melting point: "169 to 172 °C"
- Smiles Repr: "CCOc1ccc(/C=C(\\C(N)=O)S(=O)(=O)Cc2ccc([N+](=O)[O-])cc2)cc1OC"
  melting point: "235 to 240 °C"
- Smiles Repr: "COc1ccc(/C=C(\\C#N)S(=O)(=O)Nc2ccc(C)cc2C)cc1"
  melting point: "127 to 129 °C"
- Smiles Repr: "COc1ccc(NS(=O)(=O)/C(C#N)=C/c2cc(C)ccc2C)cc1"
  melting point: "125 to 127 °C"
- Smiles Repr: "N#C/C(=C\\c1cccc(O)c1)S(=O)(=O)Cc1ccccc1"
  melting point: "132 to 135 °C"
- Smiles Repr: "Cc1ccc(NS(=O)(=O)/C(C#N)=C/c2ccccc2Cl)c(C)c1"
  melting point: "116 to 119 °C"
- Smiles Repr: "COc1cc(/C=C(\\C#N)S(=O)(=O)Cc2ccccc2)cc(OC)c1"
  melting point: "152 to 156 °C"

Consider the record given below.
[ask] Dear colleague, please send me the reported melting point for `NC(=O)/C(=C\c1cccc(Cl)c1Cl)S(=O)(=O)Cc1ccc(F)cc1` when you can.
[reply] 188 to 193 °C
